Tested on: Dengue-2 (Strain New Guinea C)
Experiment: Viral yield assay against Dengue-2 in Vero cells
Type: cell-based, Dengue virus
Settings: Dengue virus; Vero cells, MOI 0.1, harvested 48 hours post infection; read-out: Activity (EC50 class) against Dengue-2 Virus in Vero cells

record.smiles	EC50
Cc1ccc(NC(=O)c2sc3nc4c(cc3c2N)CN(C)CC4)c(F)c1	5 to 25 µM
CC(=O)N1CCc2nc3sc(C(=O)Nc4ccc(C(C)(C)C)cc4)c(N)c3c(C(F)(F)F)c2C1	< 5 µM
CN1CCc2nc3sc(C(=O)NCc4ccccc4Cl)c(N)c3cc2C1	5 to 25 µM
CCN1CCc2nc3sc(C(=O)Nc4ccccc4OC(F)(F)F)c(N)c3cc2C1	< 5 µM
CCc1c(C)nc2sc(C(N)=O)c(N)c2c1C	> 25 µM
CCc1c2c(nc3sc(C(=O)N4CCOCC4)c(N)c13)CC(C)(C)CC2=O	> 25 µM
Cc1ccccc1-n1cnc2c(sc3nc(N4CCOCC4)c4c(c32)CC(C)(C)OC4)c1=O	5 to 25 µM
Cc1cc(C)c2c(N)c(C(=O)Nc3cc(C(F)(F)F)ccc3Cl)sc2n1	> 25 µM

###

Tested on: Dengue-2 (Strain New Guinea C)
Experiment: Viral yield assay against Dengue-2 in Vero cells
Type: cell-based, Dengue virus
Conditions: Dengue virus; Vero cells, MOI 0.1, harvested 48 hours post infection; read-out: Activity (EC50 class) against Dengue-2 Virus in Vero cells
Recorded measurements of EC50, one per entry
parameter: EC50

record.smiles	target.under.test	result
NC(=O)c1sc2nc3c(c(-c4cccs4)c2c1N)CCCC3	Dengue-2 (Strain New Guinea C)	> 25 µM
Nc1c(C(=O)Nc2ccccc2)sc2nc3c(cc12)CCC3	Dengue-2 (Strain New Guinea C)	> 25 µM
Cc1ccc(NC(=O)c2sc3nc4c(cc3c2N)CN(C)CC4)cc1Cl	Dengue-2 (Strain New Guinea C)	< 5 µM
Nc1c(C(=O)Nc2nccs2)sc2nc(-c3ccccc3)cc(C(F)(F)F)c12	Dengue-2 (Strain New Guinea C)	> 25 µM
CCN(CC)C(=O)c1sc2nc(C)cc(C)c2c1N	Dengue-2 (Strain New Guinea C)	> 25 µM
COc1ccc(NC(=O)c2sc3nc4c(cc3c2N)CN(C(C)C)CC4)cc1	Dengue-2 (Strain New Guinea C)	< 5 µM

###

Recorded measurements of EC50, one per entry
Tested on: DENV-1
Test: Viral yield assay against DENV-1 in Vero cells
Type: cell-based
Conditions: Dengue virus, DENV1, viral yield assay

compound	EC50
Nc1c(C(=O)Nc2nnc(-c3ccccc3)s2)sc2nc3c(cc12)C(O)CCCC3 (centres unmarked)	< 5 µM
Cc1ccc(NC(=O)c2sc3nc(-c4ccc(C)cc4)ccc3c2N)cc1	< 5 µM
COc1ccc(NC(=O)c2sc3nc(-c4ccc(Cl)cc4)ccc3c2N)c(OC)c1	< 5 µM
Nc1c(C(=O)Nc2ccc(F)c(F)c2)sc2nc(-c3ccc4c(c3)OCO4)ccc12	< 5 µM
COc1cccc(-c2ccc3c(N)c(C(=O)Nc4cccc(Cl)c4)sc3n2)c1	< 5 µM

###

Recorded measurements of EC50, one per entry
System: Dengue-2 (Strain New Guinea C)
Assay: Viral yield assay against Dengue-2 in Vero cells
Format: cell-based, Dengue virus
Settings: Dengue virus; Vero cells, MOI 0.1, harvested 48 hours post infection; read-out: Activity (EC50 class) against Dengue-2 Virus in Vero cells
Where a name gives a salt, the structure may show the parent alone.

compound	target.under.test	EC50
Nc1c(C(=O)Nc2nnc(-c3ccccc3)s2)sc2nc3c(cc12)CCNCC3 [Compound 115, hydrochloride]	Dengue-2 (Strain New Guinea C)	5 to 25 µM
COCc1cc(C)nc2sc(C(=O)Nc3cc(Cl)ccc3Cl)c(N)c12	Dengue-2 (Strain New Guinea C)	> 25 µM
Nc1c(C(=O)Nc2nnc(-c3ccccc3)s2)sc2nc3c(cc12)CCCC3	Dengue-2 (Strain New Guinea C)	< 5 µM
Cc1cccc(NC(=O)c2sc3nc4c(cc3c2N)CCCCC4)c1	Dengue-2 (Strain New Guinea C)	> 25 µM
